target: 5-hydroxytryptamine receptor 1A (Homo sapiens); format: functional, cell-based; further: assay procedure not described here
Sequence (P08908 whole entry): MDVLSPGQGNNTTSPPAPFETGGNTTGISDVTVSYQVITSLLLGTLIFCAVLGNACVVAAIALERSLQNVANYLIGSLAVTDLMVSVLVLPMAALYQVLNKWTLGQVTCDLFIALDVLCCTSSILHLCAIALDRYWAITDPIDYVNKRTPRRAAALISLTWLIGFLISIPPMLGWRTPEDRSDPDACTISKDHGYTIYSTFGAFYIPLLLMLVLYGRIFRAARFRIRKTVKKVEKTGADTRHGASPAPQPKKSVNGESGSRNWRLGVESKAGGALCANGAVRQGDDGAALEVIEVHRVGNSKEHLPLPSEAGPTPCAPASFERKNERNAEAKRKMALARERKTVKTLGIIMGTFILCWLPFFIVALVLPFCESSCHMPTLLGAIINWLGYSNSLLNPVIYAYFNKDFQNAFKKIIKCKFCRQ
measured.attribute: AC50

Would you please look over these solved cases?
molecule: O=C(Cc1cccs1)N[C@@H]1C(=O)N2C(C(=O)[O-])=C(C[n+]3ccccc3)CS[C@H]12
assayed.system: 5-hydroxytryptamine receptor 1A (Homo sapiens); further: assay procedure not described here
AC50: > 30 µM
//
molecule: O=C(O)c1nn(Cc2ccc(Cl)cc2Cl)c2ccccc12
assayed.system: 5-hydroxytryptamine receptor 1A (Homo sapiens); further: assay procedure not described here
AC50: > 30 µM
//
molecule: COc1ccc(C(Cl)=C(c2ccc(OC)cc2)c2ccc(OC)cc2)cc1
assayed.system: 5-hydroxytryptamine receptor 1A (Homo sapiens); further: assay procedure not described here
AC50: > 10 µM
//
molecule: CC(=O)OCC1=C(C(=O)O)N2C(=O)[C@@H](NC(=O)CSc3ccncc3)[C@H]2SC1
assayed.system: 5-hydroxytryptamine receptor 1A (Homo sapiens); further: assay procedure not described here
AC50: > 10 µM
//
molecule: CCOC(=O)[C@H](CCc1ccccc1)N[C@@H](C)C(=O)N1Cc2ccccc2C[C@H]1C(=O)O
assayed.system: 5-hydroxytryptamine receptor 1A (Homo sapiens); further: assay procedure not described here
AC50: > 10 µM
//
molecule: C[C@H](CCC(=O)O)[C@H]1CC[C@H]2[C@@H]3[C@H](O)C[C@@H]4C[C@H](O)CC[C@]4(C)[C@H]3CC[C@]12C
assayed.system: 5-hydroxytryptamine receptor 1A (Homo sapiens); further: assay procedure not described here
AC50: > 30 µM

Q: I am curious: what AC50 value has been reported for CC1NCCOC1c1ccccc1 (stereo not drawn) ?
Result: > 10 µM

Q: Item: `CC(C)C[C@H](NC(=O)[C@H](Cc1ccccc1)NC(=O)c1cnccn1)B(O)O`
Result: > 30 µM

----------
Sodium-dependent noradrenaline transporter (Homo sapiens, UniProt P23975) measurements of AC50, listed per entry. Further: assay procedure not described here.
Sequence (P23975 whole entry): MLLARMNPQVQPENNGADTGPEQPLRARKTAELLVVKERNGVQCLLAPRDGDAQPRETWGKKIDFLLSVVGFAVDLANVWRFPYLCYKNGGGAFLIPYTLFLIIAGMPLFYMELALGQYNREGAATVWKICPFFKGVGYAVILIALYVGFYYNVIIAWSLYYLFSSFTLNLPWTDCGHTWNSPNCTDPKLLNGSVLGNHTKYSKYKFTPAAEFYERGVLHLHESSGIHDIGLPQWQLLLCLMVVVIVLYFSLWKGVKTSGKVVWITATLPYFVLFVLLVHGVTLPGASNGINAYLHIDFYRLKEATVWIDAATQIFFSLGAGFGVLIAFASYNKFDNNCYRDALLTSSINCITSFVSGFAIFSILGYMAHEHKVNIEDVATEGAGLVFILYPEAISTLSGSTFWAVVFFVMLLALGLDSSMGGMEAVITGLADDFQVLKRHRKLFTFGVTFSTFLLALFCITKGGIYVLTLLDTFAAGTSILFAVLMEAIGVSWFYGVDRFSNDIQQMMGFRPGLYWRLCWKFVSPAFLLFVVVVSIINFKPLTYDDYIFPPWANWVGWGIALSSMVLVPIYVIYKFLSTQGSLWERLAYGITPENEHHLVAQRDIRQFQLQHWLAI

Would you please look over these solved cases?
compound: Nc1ccc(S(=O)(=O)Nc2ncccn2)cc1 [SULFADIAZINE]
recorded.value: > 10 µM
//
compound: Cc1cnc(Nc2ccc(OCCN3CCCC3)cc2)nc1Nc1cccc(S(=O)(=O)NC(C)(C)C)c1 [FEDRATINIB]
recorded.value: 0.24 µM
//
compound: CC[N+](CC)(CCNC(=O)C(=O)NCC[N+](CC)(CC)Cc1ccccc1Cl)Cc1ccccc1Cl [AMBENONIUM]
recorded.value: 10 µM
//
compound: CCOC(=O)Nc1ccc(NCc2ccc(F)cc2)nc1N [FLUPIRTINE]
recorded.value: > 30 µM
//
compound: CN(C)CCC(O)(c1ccccc1)c1ccccc1Cl (stereo not given) [CHLOPHEDIANOL]
recorded.value: > 10 µM
//
compound: CC(=O)Oc1ccccc1C(=O)O [ASPIRIN]
recorded.value: > 30 µM

Q: I am curious: what AC50 value has been reported for CC(=O)N1CCN(c2ccc(OCC3COC(Cn4ccnc4)(c4ccc(Cl)cc4Cl)O3)cc2)CC1 (stereo not given) [KETOCONAZOLE] ?
Result: > 30 µM

Q: Item: C[C@H](Nc1ncnc2[nH]cnc12)c1cc2cccc(Cl)c2c(=O)n1-c1ccccc1 [DUVELISIB]
Result: > 30 µM

Q: Item: CNCCc1ccccn1 [BETAHISTINE]
Result: > 30 µM

Q: Item: CCC(NC(C)C)C(O)c1ccc(O)c(O)c1 (stereo not given) [ISOETHARINE]
Result: > 30 µM

Q: Item: O=C(c1ccccc1)c1ccc2n1CCC2C(=O)O (stereo not given) [KETOROLAC]
Result: > 10 µM

----------
Biological target: Type-1 angiotensin II receptor (Homo sapiens, UniProt P30556); further: assay procedure not described here
Sequence (P30556 whole entry): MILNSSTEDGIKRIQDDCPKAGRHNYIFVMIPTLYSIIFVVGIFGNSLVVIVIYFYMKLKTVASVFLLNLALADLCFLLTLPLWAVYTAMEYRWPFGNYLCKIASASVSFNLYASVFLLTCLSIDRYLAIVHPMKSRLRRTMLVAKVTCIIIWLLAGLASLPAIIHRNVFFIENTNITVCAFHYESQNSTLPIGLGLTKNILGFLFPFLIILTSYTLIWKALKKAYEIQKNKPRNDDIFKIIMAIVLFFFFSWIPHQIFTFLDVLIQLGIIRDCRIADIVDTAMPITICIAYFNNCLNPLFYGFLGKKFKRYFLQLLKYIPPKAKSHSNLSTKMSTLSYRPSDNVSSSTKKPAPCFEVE
measured.attribute: AC50

compound: CCOC(=O)O[C@]1(C(=O)COC(=O)CC)CC[C@H]2[C@@H]3CCC4=CC(=O)C=C[C@]4(C)[C@H]3[C@@H](O)C[C@@]21C [PREDNICARBATE]
AC50: > 10 µM

Q: Hello, I am looking for reported AC50 with Type-1 angiotensin II receptor (Homo sapiens, UniProt P30556) for `CC(C)/N=c1\cc2n(-c3ccc(Cl)cc3)c3ccccc3nc-2cc1Nc1ccc(Cl)cc1` . Could you help?
Result: > 30 µM

Q: Item: CC(NC(C)(C)C)C(=O)c1cccc(Cl)c1 (stereo unspecified)
Result: > 30 µM

Q: Item: CCC(=O)c1ccc2c(c1)N(CC(C)N(C)C)c1ccccc1S2 (stereo unspecified)
Result: > 10 µM

Q: Item: CCC(=O)[C@@]1(C)[C@H](C)C[C@H]2[C@@H]3CCC4=CC(=O)C=C[C@]4(C)[C@H]3[C@@H](O)C[C@@]21C [RIMEXOLONE]
Result: > 10 µM

Q: Item: `CO[C@@H]1[C@@H](OC(N)=O)[C@@H](O)[C@H](Oc2ccc3c(O)c(NC(=O)c4ccc(O)c(CC=C(C)C)c4)c(=O)oc3c2C)OC1(C)C`
Result: > 30 µM

Q: Item: `O=c1[nH]cc(F)c(=O)[nH]1`
Result: > 30 µM

Q: Item: `CCCCCCCC(=O)CC[C@@H]1[C@@H](C/C=C\CCCC(=O)O)[C@@H](O)C[C@H]1O`
Result: > 30 µM

Q: Item: `CC(C)(CO)c1cc2cc(NC(=O)C3(c4ccc5c(c4)OC(F)(F)O5)CC3)c(F)cc2n1C[C@@H](O)CO`
Result: > 30 µM

Q: Item: `CN(C)CCN(Cc1ccccc1)c1ccccn1`
Result: > 10 µM

Q: Item: CNC1(C)C2CCC(C2)C1(C)C (stereo unspecified)
Result: > 10 µM

Q: Item: `Cc1ccc(-c2ncc(Cl)cc2-c2ccc(S(C)(=O)=O)cc2)cn1`
Result: > 10 µM

Q: Item: O=C(C[S+]([O-])Cc1ccco1)NC/C=C\COc1cc(CN2CCCCC2)ccn1 (stereo unspecified)
Result: > 10 µM

Q: Item: `CN1CCCN=C1/C=C/c1cccc(O)c1`
Result: > 30 µM

Q: Item: `CNCCc1ccccn1`
Result: > 30 µM

Q: Item: CCC(NC(C)C)C(O)c1ccc(O)c(O)c1 (stereo unspecified)
Result: > 30 µM

----------
molecular target: UniProtKB P35367
Sequence (P35367 whole entry): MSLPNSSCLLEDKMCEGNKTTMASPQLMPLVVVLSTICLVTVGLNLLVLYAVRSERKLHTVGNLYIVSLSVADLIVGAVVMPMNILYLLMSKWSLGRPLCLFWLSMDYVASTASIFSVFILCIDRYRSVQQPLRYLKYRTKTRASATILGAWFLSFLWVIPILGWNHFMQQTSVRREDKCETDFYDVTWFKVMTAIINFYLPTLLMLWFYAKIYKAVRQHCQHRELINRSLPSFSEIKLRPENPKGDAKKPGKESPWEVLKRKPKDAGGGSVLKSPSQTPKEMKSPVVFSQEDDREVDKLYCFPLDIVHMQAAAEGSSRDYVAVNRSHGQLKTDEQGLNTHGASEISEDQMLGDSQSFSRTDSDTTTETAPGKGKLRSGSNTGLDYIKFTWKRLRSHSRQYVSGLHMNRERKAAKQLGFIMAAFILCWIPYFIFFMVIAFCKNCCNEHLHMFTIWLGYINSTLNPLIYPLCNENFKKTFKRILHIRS
measured.attribute: AC50

compound: CCOC(=O)O[C@]1(C(=O)COC(=O)CC)CC[C@H]2[C@@H]3CCC4=CC(=O)C=C[C@]4(C)[C@H]3[C@@H](O)C[C@@]21C [PREDNICARBATE]
assayed.system: UniProtKB P35367
AC50: > 10 µM

compound: CCOCC(O)COc1ccc(NC(=O)CC[S+](C)C)cc1 (centres undefined)
assayed.system: UniProtKB P35367
AC50: > 30 µM

compound: O=C(O[C@H]1C[N+]2(CCCOc3ccccc3)CCC1CC2)C(O)(c1cccs1)c1cccs1 [ACLIDINIUM BROMIDE]
assayed.system: UniProtKB P35367
AC50: 4.5 µM

Please look at the following compound next.
Q: I am curious: what AC50 value has been reported for `C#CCN(C)Cc1ccccc1` ?
Result: > 30 µM

----------
The entries below are paired with their reported AC50.
target: Thromboxane A2 receptor (Homo sapiens); further: assay procedure not described here
Sequence (P21731 whole entry): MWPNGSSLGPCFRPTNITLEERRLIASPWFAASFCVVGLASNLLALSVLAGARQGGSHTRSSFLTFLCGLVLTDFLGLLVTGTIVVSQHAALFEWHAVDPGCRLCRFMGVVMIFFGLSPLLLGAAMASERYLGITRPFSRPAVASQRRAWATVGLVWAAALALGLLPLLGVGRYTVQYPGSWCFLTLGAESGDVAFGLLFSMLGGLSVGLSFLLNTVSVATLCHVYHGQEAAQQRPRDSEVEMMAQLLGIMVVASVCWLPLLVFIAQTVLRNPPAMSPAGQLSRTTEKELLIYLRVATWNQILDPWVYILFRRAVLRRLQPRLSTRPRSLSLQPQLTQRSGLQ

molecule: CN(C)CCN(Cc1ccccc1)c1ccccn1 [TRIPELENNAMINE]
recorded.value: > 10 µM
//
molecule: Cc1ccc(-c2ncc(Cl)cc2-c2ccc(S(C)(=O)=O)cc2)cn1 [ETORICOXIB]
recorded.value: > 10 µM
//
molecule: CCC1(CC)C(=O)NC(=O)N(C)C1=O [METHARBITAL]
recorded.value: > 10 µM
//
molecule: CC1CC(OC(=O)C(O)c2ccccc2)CC(C)(C)C1 (centres undefined) [CYCLANDELATE]
recorded.value: > 10 µM

Q: I am curious: what AC50 value has been reported for CN(C)CCOCC(=O)NC12CC3CC(CC(C3)C1)C2 [TROMANTADINE] ?
Result: > 30 µM

Q: Item: CCOc1ccccc1OCCN[C@H](C)Cc1ccc(OC)c(S(N)(=O)=O)c1 [TAMSULOSIN]
Result: > 30 µM

Q: Item: CN1C2CCCC1CC(NC(=O)c1nn(C)c3ccccc13)C2 (centres undefined) [GRANISETRON]
Result: > 30 µM

Q: Item: CC1=C(/C=C/C(C)=C/C=C/C(C)=C/C(=O)Oc2c(C)c(C)c3c(c2C)CCC(C)(CCCC(C)CCCC(C)CCCC(C)C)O3)C(C)(C)CCC1 (centres undefined) [TRETINOIN TOCOFERIL]
Result: > 30 µM

Q: Item: O=C(C[S+]([O-])Cc1ccco1)NC/C=C\COc1cc(CN2CCCCC2)ccn1 (centres undefined) [LAFUTIDINE]
Result: > 10 µM

// provenance: ChEMBL document CHEMBL5291721
